- Tested on: hiPSC-CM (iCell Cardiomyocytes^2)
- test_name: Intracellular miRNA expression by RT-qPCR in hiPSC-CM pellets after 72-hour treatment
- conditions: Homo sapiens, 72 h, read-out: hsa-miR-[…] change
Known fold induction at 0.3 µM of a selection of compounds
measurement_kind: fold induction at 0.3 µM

> print(dat)
                                   compound                        measured.on          measurement.kind  test.result
1           CCN[C@@H](C)Cc1cccc(C(F)(F)F)c1  hiPSC-CM (iCell Cardiomyocytes^2)  fold induction at 0.3 µM          0.8
2  CCCN1C[C@H](CSC)C[C@@H]2c3cccc4[nH]cc(c34)C[C@H]21 [Pergolide]  hiPSC-CM (iCell Cardiomyocytes^2)  fold induction at 0.3 µM          0.9
3     CCCCCNC(=N)N/N=C/c1c[nH]c2ccc(OC)cc12  hiPSC-CM (iCell Cardiomyocytes^2)  fold induction at 0.3 µM          0.7
4  CC(=O)[C@]1(O)Cc2c(O)c3c(c(O)c2[C@@H](O[C@H]2C[C@H](N)[C@H](O)[C@H](C)O2)C1)C(=O)c1ccccc1C3=O  hiPSC-CM (iCell Cardiomyocytes^2)  fold induction at 0.3 µM          1.1

###

- Tested on: hiPSC-CM (iCell Cardiomyocytes^2)
- test_name: Intracellular miRNA expression by RT-qPCR in hiPSC-CM pellets after 72-hour treatment
- conditions: 0.3 µM, 72 h
Where a name gives a salt, the structure may show the parent alone.
Known hsa-miR-133b fold change, intracellular of a selection of compounds

compound	hsa-miR-133b fold change, intracellular
Cc1cn(-c2cc(NC(=O)c3ccc(C)c(Nc4nccc(-c5cccnc5)n4)c3)cc(C(F)(F)F)c2)cn1	0.4
CC[C@]1(O)C[C@H]2CN(CCc3c([nH]c4ccccc34)[C@@](C(=O)OC)(c3cc4c(cc3OC)N(C=O)[C@H]3[C@@](O)(C(=O)OC)[C@H](OC(C)=O)[C@]5(CC)C=CCN6CC[C@]43[C@@H]65)C2)C1	0.3
CC(C)C[C@H](NC(=O)[C@H](CCc1ccccc1)NC(=O)CN1CCOCC1)C(=O)N[C@@H](Cc1ccccc1)C(=O)N[C@@H](CC(C)C)C(=O)[C@@]1(C)CO1	5.5
CC(C)C[C@H](NC(=O)CNC(=O)c1cc(Cl)ccc1Cl)B1OC(=O)C(CC(=O)O)(CC(=O)O)O1 [Ixazomib Citrate]	0.4
Cc1nc(Nc2ncc(C(=O)Nc3c(C)cccc3Cl)s2)cc(N2CCN(CCO)CC2)n1	2.7

###

- Tested on: hiPSC-CM (iCell Cardiomyocytes^2)
- test_name: Intracellular miRNA expression by RT-qPCR in hiPSC-CM pellets after 72-hour treatment
- conditions: 0.3 µM, 72 h
Counter-ions that a name gives are not always drawn.
Known hsa-miR-96-5p fold change, intracellular of a selection of compounds

compound	hsa-miR-96-5p fold change, intracellular
CC(C)C[C@H](NC(=O)CNC(=O)c1cc(Cl)ccc1Cl)B1OC(=O)C(CC(=O)O)(CC(=O)O)O1 [Ixazomib Citrate]	13.0
CC[C@]1(O)C[C@H]2CN(CCc3c([nH]c4ccccc34)[C@@](C(=O)OC)(c3cc4c(cc3OC)N(C=O)[C@H]3[C@@](O)(C(=O)OC)[C@H](OC(C)=O)[C@]5(CC)C=CCN6CC[C@]43[C@@H]65)C2)C1	0.8
CC(C)C[C@H](NC(=O)[C@H](CCc1ccccc1)NC(=O)CN1CCOCC1)C(=O)N[C@@H](Cc1ccccc1)C(=O)N[C@@H](CC(C)C)C(=O)[C@@]1(C)CO1	21.0
Cc1nc(Nc2ncc(C(=O)Nc3c(C)cccc3Cl)s2)cc(N2CCN(CCO)CC2)n1	9.0
